Data credit: paper PMC11345841

remaining binding at 1 µM overview
assay-target: EGFR(S752-I759del) (Homo sapiens, UniProt P00533, DEL752-759)
Construct: purchased Eurofins DiscoverX KINOMEscan (scanTK)
Sequence (P00533 with tags, fused parts or gaps DEL752-759 limits assumed): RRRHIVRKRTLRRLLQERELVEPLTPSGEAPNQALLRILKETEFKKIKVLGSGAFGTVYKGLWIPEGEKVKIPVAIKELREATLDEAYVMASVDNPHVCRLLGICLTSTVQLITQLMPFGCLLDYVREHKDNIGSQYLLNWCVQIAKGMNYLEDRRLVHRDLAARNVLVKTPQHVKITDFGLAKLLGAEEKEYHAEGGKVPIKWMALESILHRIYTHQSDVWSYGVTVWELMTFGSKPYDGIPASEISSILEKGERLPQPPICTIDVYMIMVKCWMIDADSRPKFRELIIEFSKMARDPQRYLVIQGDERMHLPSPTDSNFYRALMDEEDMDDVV
test-protocol: KINOMEscan ScanTK
Type: binding
assay-conditions: @1000nM, read-out: %Control
assay-readout: remaining binding at 1 µM (%)

# compound, endpoint-result
measured = [
    ("COC(=O)c1cnc(S(C)(=O)=O)nc1N1CCCC(n2nc(-c3ccc(Oc4ccccc4)cc3)c3c(N)ncnc32)C1 (stereo not shown)", 82),
    ("Cc1cnc(S(C)(=O)=O)nc1N1CCCC(n2nc(-c3ccc(Oc4ccccc4)cc3)c3c(N)ncnc32)C1 (stereo not shown)", 100),
    ("CNC(=O)c1cnc(S(C)(=O)=O)nc1N1CCCC(n2nc(-c3ccc(Oc4ccccc4)cc3)c3c(N)ncnc32)C1 (stereo not shown)", 69),
    ("CCOC(=O)c1cnc(S(C)(=O)=O)nc1N1CCC[C@@H](n2nc(-c3ccc(Oc4ccccc4)cc3)c3c(N)ncnc32)C1", 100),
]
